Origin of the recorded values: patent US20250340563A1

- target: NLRP3 inflammasome (Homo sapiens, UniProt Q96P20)
- Sequence (Q96P20 whole entry): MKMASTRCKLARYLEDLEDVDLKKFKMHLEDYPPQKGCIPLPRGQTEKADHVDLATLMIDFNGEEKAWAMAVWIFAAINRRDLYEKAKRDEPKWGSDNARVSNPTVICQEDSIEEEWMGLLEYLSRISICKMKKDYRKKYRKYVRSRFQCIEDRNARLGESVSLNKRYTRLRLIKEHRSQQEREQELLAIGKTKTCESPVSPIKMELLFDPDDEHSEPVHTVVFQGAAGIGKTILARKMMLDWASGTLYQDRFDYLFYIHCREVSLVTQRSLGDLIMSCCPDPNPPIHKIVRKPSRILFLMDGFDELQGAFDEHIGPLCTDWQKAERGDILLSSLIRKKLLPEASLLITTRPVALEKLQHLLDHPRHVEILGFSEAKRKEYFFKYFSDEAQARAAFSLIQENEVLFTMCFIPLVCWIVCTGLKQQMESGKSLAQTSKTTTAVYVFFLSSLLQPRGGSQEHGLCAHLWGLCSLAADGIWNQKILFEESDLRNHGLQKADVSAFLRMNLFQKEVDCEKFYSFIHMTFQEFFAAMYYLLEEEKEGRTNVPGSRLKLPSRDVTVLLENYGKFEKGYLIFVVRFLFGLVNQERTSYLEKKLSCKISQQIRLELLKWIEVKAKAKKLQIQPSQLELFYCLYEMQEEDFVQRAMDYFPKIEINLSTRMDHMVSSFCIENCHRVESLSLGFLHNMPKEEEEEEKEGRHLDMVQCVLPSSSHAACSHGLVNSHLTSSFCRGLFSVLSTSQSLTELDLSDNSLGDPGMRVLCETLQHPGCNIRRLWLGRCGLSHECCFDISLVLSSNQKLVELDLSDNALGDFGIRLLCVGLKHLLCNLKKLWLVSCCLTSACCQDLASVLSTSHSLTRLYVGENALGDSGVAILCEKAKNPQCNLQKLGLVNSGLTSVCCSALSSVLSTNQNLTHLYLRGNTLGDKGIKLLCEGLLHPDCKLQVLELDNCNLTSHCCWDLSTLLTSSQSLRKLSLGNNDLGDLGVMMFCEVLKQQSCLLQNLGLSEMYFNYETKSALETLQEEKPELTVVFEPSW
- assayExplanation: IL-1β assay in IFN-γ-differentiated, LPS-primed, ATP-activated THP-1 cells (ELISA)
- Format: cell-based
- assayConditions: 50 ng/mL LPS priming, 2.5 mM ATP activation, 2 hours
resultType: IC50 (nM)

compound	resultType	recordedMeasurement
CN1CCCC(Nc2nnc(-c3ccc(Cl)cc3)c3ccccc23)C1=O (stereo not drawn)	IC50	3780
Oc1cc(Cl)ccc1-c1nnc(N[C@@H]2CCCN(CCF)C2)c2cnccc12	IC50	2

I. CN1C[C@H](F)C[C@@H](Nc2nnc(-c3ccc(Cl)cc3)c3ccccc23)C1
II. Cc1ccc(-c2nnc(NC3CCCN(C)C3)c3ccccc23)cc1 (stereo not drawn)
Req: Smaller IC50 value? Options are I and II Answer format: the label of the selected item.
Resp: I

----------
- target: UniProt:Q96P20
- assayExplanation: IL-1β assay in IFN-γ-differentiated, LPS-primed, ATP-activated THP-1 cells (ELISA)
- assayConditions: 50 ng/mL LPS priming, 2.5 mM ATP activation, 2 hours
resultType: IC50 (µM)

Observe how each entry below is paired with its result.
compound	unitInfo	IC50
CN1C[C@H](F)C[C@@H](Nc2nnc(-c3ccc(Cl)cc3)c3cnccc23)C1 [Example 175]	µM	0.589
Clc1ccc(-c2nnc(NC3CCN(Cc4ccccc4)C3)c3ccccc23)cc1 (stereo not shown) [Example 158]	µM	2.29
COc1ccc(-c2nnc(N[C@@H]3CCCN(C4CC4)C3)c3cnccc23)cc1 [Example 169]	µM	0.007
COc1ccc(-c2nnc(Nc3ccccc3O)c3ccccc23)cc1 [Example 39]	µM	1.62
CN1CCC[C@@H](Nc2nnc(-c3ccc(Cl)cc3O)c3c2COCC3)C1 [Example 225]	µM	0.002

I. FCCN1CCC(Nc2nnc(-c3ccc(Cl)cc3)c3ccccc23)C1 (stereo not shown) [Example 143]
II. COc1ccc(-c2nnc(N[C@@H]3CCCN(CCF)C3)c3ccccc23)cc1 [Example 58]
Req: Smaller IC50 value? Options are I and II Answer format: the label of the selected item.
Resp: II

1. Oc1cccc(Nc2nnc(-c3ccc(C4CC4)cc3F)c3ccccc23)c1 [Example 8]
2. CN1CCCC(Nc2nnc(-c3ccc(C(F)F)nc3)c3ccccc23)C1 (stereo not shown) [Example 2]
Req: Smaller IC50 value? Options are 1 and 2 Answer format: the label of the selected item.
Resp: 1
(1: 0.891 µM, 2: 5.25 µM)

----------
- target: NLRP3 inflammasome (Homo sapiens, UniProt Q96P20)
- assayExplanation: IL-1β assay in IFN-γ-differentiated, LPS-primed, ATP-activated THP-1 cells (ELISA)
- Assay type: cell-based
- assayConditions: 50 ng/mL LPS priming, 2.5 mM ATP activation, 2 hours
resultType: IC50 (nM)

compound	IC50, nM
CN1CCC[C@@H](Nc2nnc(-c3ccc(Cl)cc3O)c3ccncc23)C1 [Example 74]	4

a. CN1CCC(Nc2nnc(-c3ccc(Cl)cc3)c3ccccc23)C1=O (stereo not drawn) [Example 109]
b. COc1ccc(-c2nnc(NC3CCCN(C)C3)c3cnn(C)c23)cc1 (stereo not drawn) [Example 150]
c. CN1CCCC(Nc2nnc(-c3ccc(Cl)cc3F)c3ccncc23)C1 (stereo not drawn) [Example 68]
d. COc1ccc(-c2nnc(N[C@@H]3CCCN(C4(C)CC4)C3)c3cnccc23)cc1 [Example 168]
Req: Rank the items in ascending order with respect to IC50. Respond with an ordered listing of the labels, as requested.
Resp: d, c, b, a

----------
- target: NLRP3 inflammasome (Homo sapiens, UniProt Q96P20)
- assayExplanation: IL-1β assay in IFN-γ-differentiated, LPS-primed, ATP-activated THP-1 cells (ELISA)
- assayConditions: 50 ng/mL LPS priming, 2.5 mM ATP activation, 2 hours
resultType: IC50 (nM)

Observe how each entry below is paired with its result.
compound	recordedMeasurement
Cc1nccc2c(NC3CCCN(C)C3)nnc(-c3ccc(Cl)cc3)c12 (stereo not shown)	1510
COc1ccc(-c2nnc(N[C@H]3C[C@@](C)(O)C3)c3ccccc23)cc1	1290

A. Cc1cc(Cl)ccc1-c1nnc(NC2CCCN(C)C2)c2ccncc12 (stereo not shown)
B. CCN1CCc2c(-c3ccc(Cl)cc3)nnc(NC3CCCN(C)C3)c2C1 (stereo not shown)
Req: Smaller IC50 value? Options are A and B Answer format: the label of the selected item.
Resp: B

----------
- target: NLRP3 inflammasome (Homo sapiens, UniProt Q96P20)
- assayExplanation: IL-1β assay in IFN-γ-differentiated, LPS-primed, ATP-activated THP-1 cells (ELISA)
- assayConditions: 50 ng/mL LPS priming, 2.5 mM ATP activation, 2 hours
resultType: IC50 (nM)

Observe how each entry below is paired with its result.
compound	target	unitInfo	IC50
CC1(c2ccc(-c3nnc(Nc4cccc(O)c4)c4ccccc34)cc2)CC1	NLRP3 inflammasome (Homo sapiens, UniProt Q96P20)	nM	1120
CN1CCC[C@@H](Nc2nnc(-c3ccc(OC(F)(F)F)cc3)c3ccncc23)C1	NLRP3 inflammasome (Homo sapiens, UniProt Q96P20)	nM	36
O[C@]1(C(F)(F)F)CCC[C@@H](Nc2nnc(-c3ccc(Cl)cc3)c3ccccc23)C1 [Example 116]	NLRP3 inflammasome (Homo sapiens, UniProt Q96P20)	nM	912

I. CN1CCC[C@H](Nc2nnc(-c3ccc(Cl)cc3)c3ccncc23)C1
II. Oc1cc(Cl)ccc1-c1nnc(N[C@@H]2CCCN(CCF)C2)c2ccccc12
Req: Smaller IC50 value? Options are I and II Answer format: the label of the selected item.
Resp: II
(II: 2 nM, I: 1220 nM)

----------
- target: MDR1 (P-gp) (Homo sapiens)
- Construct: expressed in transfected cells; host or cells: Madin-Darby Canine Kidney (MDCK) cells
- Sequence (P08183 whole entry, species assumed): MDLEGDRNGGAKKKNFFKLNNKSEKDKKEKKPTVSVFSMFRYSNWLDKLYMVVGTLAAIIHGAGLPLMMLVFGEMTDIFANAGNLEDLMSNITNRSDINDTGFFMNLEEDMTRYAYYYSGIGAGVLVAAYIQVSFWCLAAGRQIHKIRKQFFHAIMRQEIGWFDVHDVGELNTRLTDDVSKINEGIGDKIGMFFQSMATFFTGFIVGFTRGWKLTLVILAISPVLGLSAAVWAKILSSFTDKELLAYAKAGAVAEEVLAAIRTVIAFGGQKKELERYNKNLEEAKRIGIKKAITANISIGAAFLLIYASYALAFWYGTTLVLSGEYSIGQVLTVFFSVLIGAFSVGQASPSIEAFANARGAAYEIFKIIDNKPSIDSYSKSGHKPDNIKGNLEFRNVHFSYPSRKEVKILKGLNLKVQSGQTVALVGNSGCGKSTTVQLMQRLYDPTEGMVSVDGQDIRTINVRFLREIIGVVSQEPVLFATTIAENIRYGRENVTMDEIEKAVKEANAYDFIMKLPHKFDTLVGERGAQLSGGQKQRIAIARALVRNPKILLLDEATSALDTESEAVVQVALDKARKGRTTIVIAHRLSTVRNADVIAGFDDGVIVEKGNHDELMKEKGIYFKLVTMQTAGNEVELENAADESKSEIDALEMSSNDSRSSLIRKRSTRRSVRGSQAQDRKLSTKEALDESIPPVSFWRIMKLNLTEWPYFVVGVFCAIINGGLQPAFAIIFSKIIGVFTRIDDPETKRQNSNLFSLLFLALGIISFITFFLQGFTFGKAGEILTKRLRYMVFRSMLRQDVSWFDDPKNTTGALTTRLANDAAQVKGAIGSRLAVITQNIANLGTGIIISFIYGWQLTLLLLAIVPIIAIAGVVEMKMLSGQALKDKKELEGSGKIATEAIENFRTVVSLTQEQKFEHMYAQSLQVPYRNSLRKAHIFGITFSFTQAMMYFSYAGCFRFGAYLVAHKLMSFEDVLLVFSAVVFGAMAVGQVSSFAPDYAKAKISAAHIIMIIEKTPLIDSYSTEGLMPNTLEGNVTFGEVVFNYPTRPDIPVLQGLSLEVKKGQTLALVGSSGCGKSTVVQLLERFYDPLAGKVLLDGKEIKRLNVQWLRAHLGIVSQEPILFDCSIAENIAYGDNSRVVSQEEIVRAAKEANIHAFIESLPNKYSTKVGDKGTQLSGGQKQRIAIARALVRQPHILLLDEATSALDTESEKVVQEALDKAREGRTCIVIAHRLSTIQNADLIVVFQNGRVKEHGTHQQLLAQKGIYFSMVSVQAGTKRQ
- assayExplanation: MDCK-MDR1 assay (apparent permeability and efflux ratio)
- Assay type: in vitro ADME
- assayConditions: dog; MDCK-MDR1 monolayer, apical to basolateral, pH 7.4, 60 minutes
- Experimental: Madine-Darby Canine Kidney (MDCK) cells transfected with Multidrug resistance protein 1 (MDR1) are maintained in accordance with the provider's instructions in Dulbecco's Modified Eagle media (DMEM, Fisher Scientific Cat #10569044). […] Apparent permeability (Papp) values and efflux ratio are calculated using the following equations: […]
resultType: Papp A→B at 60 min, 1 µM (×10⁻⁶ cm/s)

Observe how each entry below is paired with its result.
COCCN1CCC[C@@H](Nc2nnc(-c3ccc(C)cc3O)c3c2COCC3)C1 2
COc1ccc(-c2nnc(N[C@@H]3C[C@@H](F)CN(C)C3)c3c2CCOC3)c(O)c1 1.6
CN1C[C@H](F)C[C@@H](Nc2nnc(-c3ccc(C(F)(F)F)cc3O)c3c2COCC3)C1 1.5
CN1C[C@H](F)C[C@@H](Nc2nnc(-c3ccc(C(F)F)cc3O)c3c2COCC3)C1 1.2
Cc1ccc(-c2nnc(N[C@@H]3CCCC[C@H]3O)c3c2COCC3)c(O)c1 1.3

A. CN1C[C@H](F)C[C@@H](Nc2nnc(-c3ccc(OC(F)(F)F)cc3O)c3c2COCC3)C1
B. CN1CCC[C@@H](Nc2nnc(-c3ccc(Cl)cc3O)c3c2COCC3)C1
Req: Smaller Papp A→B at 60 min, 1 µM value? Options are A and B Answer format: the label of the selected item.
Resp: B
(B: 1.5 ×10⁻⁶ cm/s, A: 2.2 ×10⁻⁶ cm/s)

----------
- target: NLRP3 inflammasome (Homo sapiens)
- assayExplanation: IL-1β assay in IFN-γ-differentiated, LPS-primed, ATP-activated THP-1 cells (ELISA)
- Format: cell-based
- assayConditions: 50 ng/mL LPS priming, 2.5 mM ATP activation, 2 hours
resultType: IC50 (nM)

Observe how each entry below is paired with its result.
compound	IC50 [nM]
COc1ccc(-c2nnc(N[C@@H]3CCCN(C)C3)c3cnccc23)cc1F [Example 25]	199
FC1(F)CNCC(Nc2nnc(-c3ccc(Cl)cc3)c3ccccc23)C1 (centres unmarked) [Example 191]	1290
CN1CCC[C@@H](Nc2nnc(-c3ccc(OC(F)(F)F)c(C#N)c3)c3ccncc23)C1 [Example 24]	157
CN1C[C@@H](F)C[C@@H](Nc2nnc(-c3ccc(Cl)cc3)c3ccccc23)C1 [Example 185]	311
CN1C[C@H](F)C[C@@H](Nc2nnc(-c3ccc(OC(F)(F)F)cc3F)c3c2COCC3)C1 [Example 205]	64
CN1CCC[C@@H](Nc2nnc(-c3ccc(Cl)cc3O)c3c2CCOC3)C1 [Example 224]	2
Oc1cccc(Nc2nnc(-c3ccc(C4CC4)cc3)c3ccccc23)c1 [Example 19]	1090
Clc1ccc(-c2nnc(NC3CCCN(C4CC4)C3)c3ccncc23)cc1 (centres unmarked) [Example 89]	91
COc1cc(F)ccc1-c1nnc(N[C@@H]2C[C@@H](F)CN(C)C2)c2cnccc12 [Example 181]	1000

P. Cc1cccc(-c2nnc(NC3CCCN(C)C3)c3ccccc23)c1 (centres unmarked) [Example 18]
Q. Cc1ccc(-c2nnc(N[C@@H]3CCCN(C)C3)c3cnccc23)cc1 [Example 30]
Req: Smaller IC50 value? Options are P and Q Answer format: the label of the selected item.
Resp: Q
